This section lists IC50 readings for Cholinesterase (Homo sapiens, UniProt P06276).
Return type: number; implicit unit µM.

Q: What does the data say about its IC50? Entry: CC(C)C(=O)N[C@H]1CC[C@]2(O)CC3=CC[C@]4(C)[C@@H]([C@H](C)N(C)C)CC[C@@]4(C)[C@@H]3CC[C@H]2C1(C)C
Ans: 53.7

Q: Sample C/C=C(\C)C(=O)N[C@H]1CC[C@]2(O)CC3=CC[C@]4(C)[C@@H]([C@H](C)N(C)C)CC[C@@]4(C)[C@@H]3CC[C@H]2C1(C)C — what was its IC50?
Ans: 31.2

Q: Reported IC50, compound C[C@@H]([C@H]1CC[C@@]2(C)[C@@H]3CC[C@H]4C(C)(C)[C@@H](NC(=O)c5ccccc5)CC[C@]4(O)CC3=CC[C@]12C)N(C)C : ____
Ans: 311

All values here come from ChEMBL document CHEMBL1146525.
